target: BTK (Homo sapiens); assay: BTK degradation in Mino cells, dose-response Western blot; type: cell-based; parameters: endogenous in cells; host or cells: Mino (ATCC CRL-3000), Ramos (ATCC CRL-1596), K562 (NCI-60); settings: MINO, 24 h, read-out: Dmax (maximal degradation)
Sequence (Q06187 whole entry): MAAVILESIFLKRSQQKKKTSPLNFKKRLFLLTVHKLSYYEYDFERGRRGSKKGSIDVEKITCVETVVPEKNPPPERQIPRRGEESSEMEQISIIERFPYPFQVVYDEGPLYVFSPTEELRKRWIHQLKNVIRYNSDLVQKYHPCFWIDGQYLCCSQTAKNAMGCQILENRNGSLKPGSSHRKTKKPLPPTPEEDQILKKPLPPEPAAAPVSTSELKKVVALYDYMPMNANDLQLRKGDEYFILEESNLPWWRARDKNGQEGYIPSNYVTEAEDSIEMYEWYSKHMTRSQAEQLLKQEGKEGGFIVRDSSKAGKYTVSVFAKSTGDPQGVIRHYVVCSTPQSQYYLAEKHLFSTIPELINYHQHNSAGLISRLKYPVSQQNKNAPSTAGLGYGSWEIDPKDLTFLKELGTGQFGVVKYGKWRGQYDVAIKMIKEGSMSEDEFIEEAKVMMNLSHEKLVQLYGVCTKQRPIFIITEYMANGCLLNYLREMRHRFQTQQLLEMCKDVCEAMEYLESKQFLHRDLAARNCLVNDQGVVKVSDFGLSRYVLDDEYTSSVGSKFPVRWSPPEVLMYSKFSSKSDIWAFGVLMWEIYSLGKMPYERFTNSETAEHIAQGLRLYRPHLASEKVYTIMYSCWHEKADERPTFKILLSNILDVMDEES
RESULT TYPE: Dmax (%)

>  <COMPOUND>
Nc1ncnc2c1c(-c1ccc(Oc3ccccc3)cc1)nn2C1CCCN(C(=O)CCCCCCOCCOCCOCCOCCOc2cccc3c2C(=O)N(C2CCC(=O)NC2=O)C3=O)C1 (stereo not drawn)

>  <TESTED TARGET>
BTK (Homo sapiens)

>  <Dmax [%]>
97

$$$$
>  <COMPOUND>
N#CC(=CCOCCOCCOCCOCCOCCOc1cccc2c1C(=O)N(C1CCC(=O)NC1=O)C2=O)C(=O)N1CCCC(n2nc(-c3ccc(Oc4ccccc4)cc3)c3c(N)ncnc32)C1 (stereo not drawn)

>  <TESTED TARGET>
BTK (Homo sapiens)

>  <Dmax [%]>
68

$$$$
